protocol-text: Clearance in rat after iv dose (100 ug/kg)
Format: ADME, organism-based
study-conditions: in vivo, 0.1 mg/kg
value-type: clearance (mL/min/kg)

INSERT INTO measurements (compound, units_label, assay_result) VALUES
  ('CCNC(=O)[C@@H]1CCCN1C(=O)[C@H](CCCNC(=N)N)NC(=O)[C@H](CC(C)C)NC(=O)[C@@H](CC(C)C)NC(=O)[C@H](Cc1ccc(O)cc1)NC(=O)[C@H](CO)NC(=O)[C@H](Cc1c[nH]c2ccccc12)NC(=O)[C@H](Cc1c[nH]cn1)NC(=O)[C@@H]1CCC(=O)N1 [LEUPROLIDE]', 'mL/min/kg', 9),
  ('CCNC(=O)[C@@H]1CCCN1C(=O)[C@H](CCCN=C(N)N)NC(=O)C(CC(C)C)NC(=O)C(CC(C)C)NC(=O)[C@H](Cc1ccc(O)cc1)NC(=O)[C@H](CO)NC(=O)[C@H](Cc1c[nH]c2ccccc12)NC(=O)[C@H](Cc1c[nH]cn1)N(C)C(=O)[C@@H]1CCC(=O)N1 (stereo in doubt)', 'mL/min/kg', 7.16);

Where do these numbers come from? They come from ChEMBL document CHEMBL1126585.
